- MEASUREMENT TARGET: human recombinant MC4R (CHO-K1/Gα15 stable cell line, GenScript) (human, UniProt P32245 1-332)
- Sequence (P32245 whole entry): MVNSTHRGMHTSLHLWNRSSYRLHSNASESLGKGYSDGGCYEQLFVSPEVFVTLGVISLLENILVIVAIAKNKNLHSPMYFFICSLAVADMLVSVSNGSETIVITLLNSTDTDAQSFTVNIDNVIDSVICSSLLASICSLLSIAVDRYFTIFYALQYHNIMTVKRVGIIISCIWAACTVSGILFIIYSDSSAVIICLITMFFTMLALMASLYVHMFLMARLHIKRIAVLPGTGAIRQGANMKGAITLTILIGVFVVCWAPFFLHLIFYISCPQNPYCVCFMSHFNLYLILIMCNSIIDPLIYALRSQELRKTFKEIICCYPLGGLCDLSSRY
- ASSAY EXPLANATION: cell-based or functional assay
Starred links: 1 amine or outer side, 2 acyl side, 3 side chain; linkers in the order of their positions; H or OH if unused. Positions of bridges follow the written chain, without caps; N, C: chain ends. Non-standard residues stand in square brackets, D forms with d. *: point of attachment. Hgln = homoglutamine, NC(=O)CCC[C@H](N[*:1])C(=O)[*:2]; Benzoyl(3,5-(OH)2) = O=C(c1cc(O)cc(O)c1)*; Lys(N3) = [N-]=[N+]=NCCCC[C@H](N)C(=O)O; dPhe(4-F) = N[C@H](Cc1ccc(F)cc1)C(=O)O; Nle = CCCC[C@H](N)C(=O)O; Pra = C#CC[C@H](N)C(=O)O
MEASUREMENT TYPE: EC50(nM)-MC4R

{"columns": ["BINDER", "UNITS", "EC50(nM)-MC4R"],
 "data": [
  ["Ac-[Nle][Lys(N3)]H[dPhe(4-F)]RW[Pra]-NH2 (triazole 2-7) [KR-049]", "nM", 16.1]
]}

[P] {Benzoyl(3,5-(OH)2)}-[Nle][Lys(N3)]H[dPhe(4-F)]RW[Pra][Hgln]-NH2 (triazole 2-7; not fully specified; printed as HyBA-Nle-[Lys(N3)-His-Dphe(4-F)-Arg-Trp-Pra]-Hgln-NH2) [KR-071]
[Q] Ac-[Nle][Lys(N3)]H[dF]RW[Pra]-NH2 (bridge 2-7; not fully specified (bridges); printed as Ac-Nle-[Lys(N3)-His-DPhe-Arg-Trp-Pra]-NH2) [KR-009]
Returns: the label, P or Q , whose recorded EC50(nM)-MC4R is the lower number. Label of pick, please.
Q
